Cited source: PubChem BioAssay (NCI)

- Test system: CCRF-CEM leukemia
- protocol_notes: NCI tumour cell line growth inhibition, 48 h; in the data active = GI50 below about 0.43 µM; inactive = the rest
// classify into label 1 = active, label 0 = inactive

Solved cases below.
CCOC(=O)/C=C/c1cc2cc(-c3csc4ccccc34)ccc2[nH]1	label 0
O=C(Nc1ccc(Cl)cc1F)c1cc(I)ccc1O	label 0
Oc1c(CN2CCCC2)cc(COCc2ccc(Br)cc2)c2cccnc12	label 0
CC(=O)OCC(=O)O[C@@H]1C[C@]2(C(C)C)O[C@@]1(C)[C@@H]1CC[C@@H](C)[C@H]1[C@@H]2OC(=O)/C=C/c1ccccc1	label 0

Challenge: // param item: CCN1C(=O)NC(=O)C(C)(N2C(=O)c3c(F)c(F)c(F)c(F)c3C2=O)C1=O (centres undefined) ; yields the recorded call
Response given: label 0

Challenge: // param item: CC/C(=C(/CC)c1ccc([O-])cc1)c1ccc([O-])cc1.CC/C(=C(\CC)c1ccc([O-])cc1)c1ccc([O-])cc1.O=C([CH-]C(=O)c1ccccc1)c1ccccc1.O=C([CH-]C(=O)c1ccccc1)c1ccccc1.O=C([CH-]C(=O)c1ccccc1)c1ccccc1.O=C([CH-]C(=O)c1ccccc1)c1ccccc1.[Ti+4].[Ti+4] ; yields the recorded call
Response given: label 0

Challenge: // param item: C/C(=C\C1=C(Cl)C(=O)c2ccccc2C1=O)C(=O)O ; yields the recorded call
Response given: label 0

Challenge: // param item: COc1cnc2c(c1)C(=O)c1c-2n(CCCN2CCC(O)CC2)c(=O)c2cc(F)ccc12 ; yields the recorded call
Response given: label 1

Challenge: // param item: C[C@@H]1CC[C@@H]2[C@@H]1[C@H](OC(=O)/C=C/c1ccccc1)[C@]1(C3CCCCC3)C[C@@H](NC(=O)CO)[C@@]2(C)O1 ; yields the recorded call
Response given: label 0
